B1: HDV Ribozyme (parent)
chain: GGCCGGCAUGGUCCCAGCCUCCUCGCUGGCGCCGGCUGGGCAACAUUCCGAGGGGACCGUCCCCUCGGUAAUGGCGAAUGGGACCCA

Variants of: B1
Test: self-cleavage, relative activity (ratio to wild type); higher = more cleavage; co-transcriptional
Catalogue of self-cleavage readings, one per entry.
Note: the reply should be a number with no unit written.

- mutant-name: "U9C C49U"
  self-cleavage: 0.959
- mutant-name: "G2U C15U"
  self-cleavage: 0
- mutant-name: "G54A C84U"
  self-cleavage: 0.563
- mutant-name: "A45C U69C"
  self-cleavage: 0.623
- mutant-name: "C18A U46C"
  self-cleavage: 0.095

Recorded self-cleavage for U12A A56C , please?
0.262

Recorded self-cleavage for U27G C85G , please?
1.29

Recorded self-cleavage for C24A A42G , please?
0.166

Recorded self-cleavage for G17C G31U , please?
0.0831

Recorded self-cleavage for G17U G76U , please?
0.749

Recorded self-cleavage for A43C A83C , please?
0.332

Recorded self-cleavage for A8U C22G , please?
0.19

Recorded self-cleavage for G67A G76C , please?
0.926

Recorded self-cleavage for G67U G68A , please?
0.972

Recorded self-cleavage for G35C C44U , please?
0.0536

Recorded self-cleavage for G10U C66U , please?
0.728

Recorded self-cleavage for C66A A87G , please?
0.898

Recorded self-cleavage for C22A U79C , please?
0.18
